# experimental target: T1, ESO157 homolog 5 peptide (…)/HLA-A*02:01 on T2 cells (human)
# T1 construct: also called ESO157 H5
# experimental protocol: FACS, phage on T2 cells, 50 ug/ml peptide;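 note: binding of phage clones to peptide/MHC complexes detected by flow cytometry after staining with an anti-M13 antibody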
Quick reference for MFI among some binders

# binder, MFI
measured = [
    ("phage clone 35-14, affinity maturation variant of clone #35 (scFv, V domains shown) VH: QVQLVQSGAEVKKPGSSVKVSCKASGDTFSSYYISWVRQAPGQGLEWMGRIIPILGIANYAQKYQGRVTLSADKSTSTSYMELNSLRSEDTAVYYCAREWSYSIDYWGQGTLVTVSS VL: QSVVTQPPSVSAAPGQKVTISCSGSSSNIGNNYVSWYQQLPGTAPELLIYDNNKRPSGIPDRFSGSKSGTSATLGITGLQTGDEADYYCGTWDSSLSAWVFGGGTKLTVL", 18.8),
    ("phage clone 35-2, affinity maturation variant of clone #35 (scFv, V domains shown) VH: QVQLVQSGAEVKKPGSSVKVSCKASGDTFSSYYISWVRQAPGQGLEWMGRIIPILGIANYAQKYQGRVTLSADKSTSTSYMELNSLRSEDTAVYYCARDWSYSIDYWGQGTLVTVSS VL: QSVVTQPPSVSAAPGQKVTISCSGSSSNIGNNYVSWYQQLPGTAPKLLIYDNNERPSGIPDRFSGSKSGTSATLGITGLQTGDEADYYCGTWDSSLSAWVFGGGTKLTVLG", 18.8),
    ("phage clone 35-3, affinity maturation variant of clone #35 (scFv, V domains shown) VH: QVQLVQSGAEVKKPGSSVKVSCKASGDTFSSYYISWVRQAPGQGLEWMGRIIPILGIANYAQKYQGRVTLSADKSTSTSYMELNSLRSEDTAVYYCAREWSYSIDYWGQGTLVTVSS VL: QSVVTQPPSVSAAPGQKVTISCSGSSSNIGNNYVSWYQQLPGTAPKLLIYDNNKRPSGIPDRFSGSKSGTSATLGITGLRTGDEADYYCGTWDSSLSAWVFGGGTKLTVLG", 18.5),
    ("phage clone 35-12, affinity maturation variant of clone #35 (scFv, V domains shown) VH: QVPLVQSGAEVKKPGSSVRVSCKASGDTFSNYSISWVRQAPGQGLEWMGRIIPILGIANYAQKYQGRVTLSADKSTSTSYMELNSLRSEDTAVYYCARDWSYSIDYWGQGTLVTVSS VL: QSVVTQPPSVSAAPGQKVTISCSGSSSNIGNNYVSWYQQLPGTAPKLLIYDNNKRPSGIPDRFSGSKSGTSTTLGITGLQTGDEADYYCGTWDSSLSAWVFGGGTKLTVLG", 17.7),
    ("phage clone #35, anti-ESO157/HLA-A*02:01 scFv displayed on phage (scFv, V domains shown, also called parental phage clone #35) VH: QVQLVQSGAEVKKPGSSVKVSCKASGDTFSSYSISWVRQAPGQGLEWMGRIIPILGIANYAQKYQGRVTLSADKSTSTSYMELNSLRSEDTAVYYCARDWSYSIDYWGQGTLVTVSS VL: QSVVTQPPSVSAAPGQKVTISCSGSSSNIGNNYVSWYQQLPGTAPKLLIYDNNKRPSGIPDRFSGSKSGTSATLGITGLQTGDEADYYCGTWDSSLSAWVFGGGTKLTVLG", 13.4),
    ("phage clone 35-19, affinity maturation variant of clone #35 (scFv, V domains shown, also called variant 35-19) VH: QEQLVQSGAEVKKPGSSVKVSCKASGDTFSSYYISWVRQAPGQGLEWMGRIIPILGIANYAQKYQGRVTLSADKSTSTSYMELNSLRSEDTAVYYCARDWSYSIDYWGQGTLVTVSS VL: QSVVTQPPSVSAAPGQKVTISCSGSISNIGNNYVSWYQQLPGTAPKLLIYDNNMRPSGIPDRFSGSKSGTSATLGITGLQTGDEADYYCGTWDSSLSAWVFGGGTKLTVLG", 60.2),
    ("phage clone 35-20, affinity maturation variant of clone #35 (scFv, V domains shown) VH: QVHLVQSGAEVKKPGSSVKVSCKASGDTFSSYYISWVRQAPGQGLEWMGRIIPILGIANYAQKYQGRVTLSADKSTSTSYMELNSLRSEDTAVYYCARDWSYSIDYWGQGTLVTVSS VL: QSVVTQPPSVSAAPGQKVTISCSGSSSNIGNNYVSWYQQLPGTAPKLLIYDNNKRPSGIPDRFSGSKSGTSATLGITGLQTGDEADYYCGTWDSSLSAWVFGGGTKLTVL", 19),
]
